# Species: Homo sapiens
# Method: Selectivity ratio of IC50 for PI3Kgamma (unknown origin) to IC50 for PI3Kalpha (unknown origin)
Label satisfied when Ratio IC50 is at or above 4; otherwise label not satisfied.

# Chemical Smiles, Label Class
data = [
    ("N#CCc1ccc(Nc2ncnc3ccc(-c4ccc5c(c4)OCO5)cc23)cc1", "not satisfied"),
    ("CC(=O)c1ccc(-c2ccc3ncnc(Nc4ccc(CC#N)cc4)c3c2)cc1", "not satisfied"),
    ("N#CCc1ccc(Nc2ncnc3ccc(-c4ccncc4)cc23)cc1", "not satisfied"),
    ("N#CCc1ccc(Nc2ncnc3ccc(-c4cncc5ccccc45)cc23)cc1", "satisfied"),
    ("N#CCc1ccc(Nc2ncnc3ccc(-c4cccc(O)c4)cc23)cc1", "satisfied"),
    ("N#CCc1ccc(Nc2ncnc3ccc(-c4ccc5[nH]ccc5c4)cc23)cc1", "not satisfied"),
    ("N#CCc1ccc(Nc2ncnc3ccc(-c4ccccc4)cc23)cc1", "satisfied"),
    ("N#CCc1ccc(Nc2ncnc3ccc(-c4cccc([N+](=O)[O-])c4)cc23)cc1", "not satisfied"),
]

###

# System Under Test: Phosphatidylinositol 4,5-bisphosphate 3-kinase catalytic subunit delta isoform (Homo sapiens)
# Sequence (O00329 whole entry, canonical isoform): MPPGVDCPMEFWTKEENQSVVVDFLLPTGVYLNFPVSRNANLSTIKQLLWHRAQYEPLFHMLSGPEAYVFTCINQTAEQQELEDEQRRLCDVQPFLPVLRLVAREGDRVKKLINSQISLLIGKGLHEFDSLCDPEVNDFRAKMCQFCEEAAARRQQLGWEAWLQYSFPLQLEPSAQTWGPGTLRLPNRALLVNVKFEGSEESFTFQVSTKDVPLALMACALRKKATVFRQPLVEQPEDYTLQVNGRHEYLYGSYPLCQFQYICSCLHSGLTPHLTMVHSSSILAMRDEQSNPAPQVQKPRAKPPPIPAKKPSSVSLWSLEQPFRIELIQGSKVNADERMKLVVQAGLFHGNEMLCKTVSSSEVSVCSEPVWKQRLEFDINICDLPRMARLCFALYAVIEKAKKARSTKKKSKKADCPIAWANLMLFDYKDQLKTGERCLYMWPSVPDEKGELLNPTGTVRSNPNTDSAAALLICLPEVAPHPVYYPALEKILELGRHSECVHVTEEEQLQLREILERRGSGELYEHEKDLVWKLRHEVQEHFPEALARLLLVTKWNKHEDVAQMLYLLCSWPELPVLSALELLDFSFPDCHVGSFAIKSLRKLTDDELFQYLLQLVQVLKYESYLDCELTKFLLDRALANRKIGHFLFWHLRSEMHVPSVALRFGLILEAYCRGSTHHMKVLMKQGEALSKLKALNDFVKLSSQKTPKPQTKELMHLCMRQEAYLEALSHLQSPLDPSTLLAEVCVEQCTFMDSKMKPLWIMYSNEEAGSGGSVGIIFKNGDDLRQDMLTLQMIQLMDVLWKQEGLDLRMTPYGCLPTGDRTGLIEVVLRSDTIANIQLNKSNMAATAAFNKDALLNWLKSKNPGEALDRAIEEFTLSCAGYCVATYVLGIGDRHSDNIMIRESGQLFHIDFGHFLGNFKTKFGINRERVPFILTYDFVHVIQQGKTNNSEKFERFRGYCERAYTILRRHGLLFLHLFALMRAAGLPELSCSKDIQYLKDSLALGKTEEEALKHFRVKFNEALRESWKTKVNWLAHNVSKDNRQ
# Method: Inhibition of PI3Kdelta (unknown origin) using diC8 PIP2 as substrate after 120 mins by ADP-glo assay
pIC50: −log10 of the molar value.
Measured Attribute: pIC50

# Chemical Smiles, Reported Relation, Value
rows = [
    ("N#CCc1ccc(Nc2ncnc3ccc(-c4ccccc4)cc23)cc1", "<", 5.00),
    ("COc1cc2ncnc(Nc3ccc(CC#N)cc3)c2cc1OC", "=", 4.26),
]

###

# System Under Test: CYP2C9 (Homo sapiens, UniProt P11712)
# Sequence (P11712 whole entry): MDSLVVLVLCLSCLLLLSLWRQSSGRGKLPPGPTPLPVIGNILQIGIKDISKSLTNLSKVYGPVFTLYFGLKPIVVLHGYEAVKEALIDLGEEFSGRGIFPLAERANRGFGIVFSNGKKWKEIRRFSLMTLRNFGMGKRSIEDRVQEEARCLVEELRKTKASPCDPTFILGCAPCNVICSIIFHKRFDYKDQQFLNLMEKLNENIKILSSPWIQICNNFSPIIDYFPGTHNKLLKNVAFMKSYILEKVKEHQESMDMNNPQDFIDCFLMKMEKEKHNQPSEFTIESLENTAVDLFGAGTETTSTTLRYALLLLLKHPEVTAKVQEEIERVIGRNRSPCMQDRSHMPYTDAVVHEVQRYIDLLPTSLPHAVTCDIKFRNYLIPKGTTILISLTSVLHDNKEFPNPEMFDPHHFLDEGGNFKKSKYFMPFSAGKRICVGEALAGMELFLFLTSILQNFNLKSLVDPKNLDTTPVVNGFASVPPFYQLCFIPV
# Method: Inhibition of human CYP2C9 at 10 uM after 10 mins by fluorescence assay
# Assay type: ADME
Measured Attribute: inhibition at 10 min, 10 µM (%)

# Chemical Smiles, Measured Attribute, Value
measured = [
    ("N#CCc1ccc(Nc2ncnc3ccc(-c4ccc5[nH]ccc5c4)cc23)cc1", "inhibition at 10 min, 10 µM", 88),
    ("N#CCc1ccc(Nc2ncnc3ccc(-c4cncc5ccccc45)cc23)cc1", "inhibition at 10 min, 10 µM", 87),
]

###

# System Under Test: Phosphatidylinositol 4,5-bisphosphate 3-kinase catalytic subunit alpha isoform (Homo sapiens)
# Sequence (P42336 whole entry, canonical isoform): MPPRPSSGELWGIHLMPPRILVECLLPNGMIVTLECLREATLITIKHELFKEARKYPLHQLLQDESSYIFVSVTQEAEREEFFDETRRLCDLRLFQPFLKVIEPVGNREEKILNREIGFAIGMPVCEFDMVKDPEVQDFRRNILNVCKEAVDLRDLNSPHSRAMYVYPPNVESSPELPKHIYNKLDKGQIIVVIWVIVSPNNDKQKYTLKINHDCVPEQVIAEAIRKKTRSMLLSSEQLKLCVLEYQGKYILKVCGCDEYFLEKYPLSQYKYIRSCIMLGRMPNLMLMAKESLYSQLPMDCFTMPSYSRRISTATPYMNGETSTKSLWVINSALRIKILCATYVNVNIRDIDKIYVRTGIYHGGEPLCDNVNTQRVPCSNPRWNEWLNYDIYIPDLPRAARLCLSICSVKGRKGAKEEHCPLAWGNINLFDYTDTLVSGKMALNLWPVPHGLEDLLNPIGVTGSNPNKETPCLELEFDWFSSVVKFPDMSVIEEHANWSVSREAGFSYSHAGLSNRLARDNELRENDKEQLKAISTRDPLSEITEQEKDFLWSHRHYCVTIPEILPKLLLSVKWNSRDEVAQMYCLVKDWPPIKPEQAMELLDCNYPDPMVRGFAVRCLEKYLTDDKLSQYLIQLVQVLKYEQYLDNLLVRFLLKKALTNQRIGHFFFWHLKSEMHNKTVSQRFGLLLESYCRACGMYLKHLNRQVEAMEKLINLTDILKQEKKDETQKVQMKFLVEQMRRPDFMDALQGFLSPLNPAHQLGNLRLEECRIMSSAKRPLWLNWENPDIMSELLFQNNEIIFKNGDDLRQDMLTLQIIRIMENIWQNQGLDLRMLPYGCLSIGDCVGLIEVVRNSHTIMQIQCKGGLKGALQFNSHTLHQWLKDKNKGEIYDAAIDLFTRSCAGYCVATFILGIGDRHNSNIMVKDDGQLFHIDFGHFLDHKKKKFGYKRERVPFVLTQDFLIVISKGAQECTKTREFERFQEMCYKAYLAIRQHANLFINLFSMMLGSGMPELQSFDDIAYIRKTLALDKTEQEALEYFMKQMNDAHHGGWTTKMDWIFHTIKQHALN
# Method: Inhibition of PI3Kalpha (unknown origin) using diC8 PIP2 as substrate after 80 mins by ADP-glo assay

# Chemical Smiles, Unit String, IC50
measured = [
    ("N#CCc1ccc(Nc2ncnc3ccc(-c4ccccc4)cc23)cc1", "µM", 0.475),
    ("COc1cc2ncnc(Nc3ccc(CC#N)cc3)c2cc1OC", "µM", 47),
]

###

# System Under Test: CYP2C19 (Homo sapiens)
# Sequence (P33261 whole entry): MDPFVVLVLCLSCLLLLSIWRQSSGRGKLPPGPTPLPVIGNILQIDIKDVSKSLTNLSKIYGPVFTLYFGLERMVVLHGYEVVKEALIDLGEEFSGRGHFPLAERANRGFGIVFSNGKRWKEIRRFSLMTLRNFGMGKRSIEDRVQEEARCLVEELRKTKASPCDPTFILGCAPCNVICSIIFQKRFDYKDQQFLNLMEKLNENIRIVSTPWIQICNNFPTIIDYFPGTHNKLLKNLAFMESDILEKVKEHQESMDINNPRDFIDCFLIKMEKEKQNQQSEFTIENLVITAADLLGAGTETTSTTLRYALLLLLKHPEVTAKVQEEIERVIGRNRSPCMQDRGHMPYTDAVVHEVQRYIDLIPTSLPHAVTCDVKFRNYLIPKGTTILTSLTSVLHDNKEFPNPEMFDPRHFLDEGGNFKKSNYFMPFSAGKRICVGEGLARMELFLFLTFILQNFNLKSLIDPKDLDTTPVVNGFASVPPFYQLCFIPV
# Method: Inhibition of human CYP2C19 at 10 uM after 10 mins by fluorescence assay
# Type: ADME

# Chemical Smiles, inhibition at 10 min, 10 µM / %
measured = [
    ("N#CCc1ccc(Nc2ncnc3ccc(-c4ccc5[nH]ccc5c4)cc23)cc1", 10),
    ("N#CCc1ccc(Nc2ncnc3ccc(-c4cncc5ccccc45)cc23)cc1", 34),
]

###

# Ratio IC50 values compiled below
# Species on record: Homo sapiens
# Method: Selectivity ratio of IC50 for PI3Kdelta (unknown origin) to IC50 for PI3Kalpha (unknown origin)

# Chemical Smiles, Ratio IC50
records = [
    ("CC(=O)c1ccc(-c2ccc3ncnc(Nc4ccc(CC#N)cc4)c3c2)cc1", "> 37"),
    ("N#CCc1ccc(Nc2ncnc3ccc(-c4cccc(O)c4)cc23)cc1", 2.3),
    ("N#CCc1ccc(Nc2ncnc3ccc(-c4ccc5c(c4)OCCO5)cc23)cc1", "> 29.2"),
    ("N#CCc1ccc(Nc2ncnc3ccc(-c4ccc5[nH]ccc5c4)cc23)cc1", "> 49.7"),
    ("N#CCc1ccc(Nc2ncnc3ccc(-c4ccc5c(c4)OCO5)cc23)cc1", "> 31.1"),
    ("N#CCc1ccc(Nc2ncnc3ccc(-c4cncc5ccccc45)cc23)cc1", 5.9),
    ("N#CCc1ccc(Nc2ncnc3ccc(-c4ccncc4)cc23)cc1", "> 14.2"),
    ("N#CCc1ccc(Nc2ncnc3ccc(-c4cccc([N+](=O)[O-])c4)cc23)cc1", "> 22.2"),
    ("C=Cc1ccc(-c2ccc3ncnc(Nc4ccc(CC#N)cc4)c3c2)cc1", 1),
    ("N#CCc1ccc(Nc2ncnc3ccc(-c4ccccc4)cc23)cc1", "> 21"),
]

###

// GI50 lookup, one value per entry
# Method: Cytotoxicity against human HL60 cells assessed as cell growth inhibition after 48 hrs by MTT assay
# Format: functional
# Conditions: HL-60, 48 h

# Chemical Smiles, Unit String, GI50
records = [
    ("N#CCc1ccc(Nc2ncnc3ccc(-c4ccc(-c5ccccc5)cc4)cc23)cc1", "µM", 16),
    ("N#CCc1ccc(Nc2ncnc3ccc(-c4ccc(OCc5ccc(F)cc5)cc4)cc23)cc1", "µM", 14),
    ("Cc1ccccc1-c1ccc2ncnc(Nc3ccc(CC#N)cc3)c2c1", "µM", 36),
    ("COc1cc2ncnc(Nc3ccc(CC#N)cc3)c2cc1OC", "µM", 47),
]
